kon reference
Target: T1, cynomolgus monkey KLK5 (cynomolgus monkey, UniProt Q9Y337 67-293 (human entry))
T1 construct: also called cyno KLK5
T1 chain: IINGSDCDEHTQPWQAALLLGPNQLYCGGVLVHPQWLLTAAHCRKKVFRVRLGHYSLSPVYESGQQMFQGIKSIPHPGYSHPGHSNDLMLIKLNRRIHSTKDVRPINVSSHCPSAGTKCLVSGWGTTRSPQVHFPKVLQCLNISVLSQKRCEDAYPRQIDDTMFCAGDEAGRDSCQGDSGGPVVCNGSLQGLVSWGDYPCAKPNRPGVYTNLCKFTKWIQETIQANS
Assay: SPR, one-armed monovalent antibody
readoutType: kon (M⁻¹ s⁻¹)

binder="OA.hu.10C5.N53V (antibody, V domains shown, One-armed (OA) monovalent anti-KLK5 antibody with a human IgG1 Fc, without Q38E/Q39K; constant regions and dummy Fc chain not specified) VH: EVQLVESGGGLVQPGGSLRLSCAASGFSLSSYGVTWVRQAPGKGLEWIGYITSVYGVSYYASWAKSRSTISRDTSKNTVYLQMGSLRAEDMAVYYCARENPDYGYAYDAWGQGTTVTVSS VL: AIRMTQSPSSFSASTGDRVTITCQASESISNELSWYQQKPGKAPKLLIYYASTLASGVPSRFSGSGSGTDFTLTISSLQPEDFATYYCAQGFGSSGVENVFGGGTKVEIK" recordedmeasurement=1.46e+07
binder="OA.hu.10C5.N53V.S34K.F92Y (antibody, V domains shown, One-armed (OA) monovalent anti-KLK5 antibody with a human IgG1 Fc, with Q38E/Q39K; constant regions and dummy Fc chain not specified) VH: EVQLVESGGGLVQPGGSLRLSCAASGFSLSSYGVTWVRKAPGKGLEWIGYITSVYGVSYYASWAKSRSTISRDTSKNTVYLQMGSLRAEDMAVYYCARENPDYGYAYDAWGQGTTVTVSS VL: AIRMTQSPSSFSASTGDRVTITCQASESISNELKWYQEKPGKAPKLLIYYASTLASGVPSRFSGSGSGTDFTLTISSLQPEDFATYYCAQGYGSSGVENVFGGGTKVEIK" recordedmeasurement=5.9e+06
binder="OA.hu.10C5.N53V.S34K.F92Y.S95F (antibody, V domains shown, One-armed (OA) monovalent anti-KLK5 antibody with a human IgG1 Fc, with Q38E/Q39K; constant regions and dummy Fc chain not specified) VH: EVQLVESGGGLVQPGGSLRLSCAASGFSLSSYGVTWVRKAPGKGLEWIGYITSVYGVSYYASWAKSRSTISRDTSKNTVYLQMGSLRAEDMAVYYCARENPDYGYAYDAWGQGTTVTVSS VL: AIRMTQSPSSFSASTGDRVTITCQASESISNELKWYQEKPGKAPKLLIYYASTLASGVPSRFSGSGSGTDFTLTISSLQPEDFATYYCAQGYGSFGVENVFGGGTKVEIK" recordedmeasurement=1.06e+07
binder="OA.hu.10C5.L5H28.WT (antibody, V domains shown, One-armed (OA) monovalent anti-KLK5 antibody with a human IgG1 Fc, without Q38E/Q39K; constant regions and dummy Fc chain not specified) VH: EVQLVESGGGLVQPGGSLRLSCAASGFSLSSYGVTWVRQAPGKGLEWIGYITSNYGVSYYASWAKSRSTISRDTSKNTVYLQMGSLRAEDMAVYYCARENPDYGYAYDAWGQGTTVTVSS VL: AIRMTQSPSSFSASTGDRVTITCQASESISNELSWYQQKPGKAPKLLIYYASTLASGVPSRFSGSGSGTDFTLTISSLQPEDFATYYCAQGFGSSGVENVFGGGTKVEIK" recordedmeasurement=1.14e+07
binder="OA.hu.10C5.N53V.S95F (antibody, V domains shown, One-armed (OA) monovalent anti-KLK5 antibody with a human IgG1 Fc, with Q38E/Q39K; constant regions and dummy Fc chain not specified) VH: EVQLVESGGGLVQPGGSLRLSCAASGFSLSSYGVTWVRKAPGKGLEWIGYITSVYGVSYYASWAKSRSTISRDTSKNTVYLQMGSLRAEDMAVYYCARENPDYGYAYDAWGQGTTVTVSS VL: AIRMTQSPSSFSASTGDRVTITCQASESISNELSWYQEKPGKAPKLLIYYASTLASGVPSRFSGSGSGTDFTLTISSLQPEDFATYYCAQGFGSFGVENVFGGGTKVEIK" recordedmeasurement=1.35e+07
